# Procedure Summary: soluble fraction after stress (log2 fold change); higher = more stays soluble; pooled small domains, quantitative proteomics
# Measurement Parameters: stress: 50 degC
Would you please tag the item 1 when its soluble fraction (log2) is -0.03 or above, and 0 when it is below?

soluble fraction (log2) >= -0.03 for HMNSKMTYSELVTNITNKEVESIKISSTGSTASVKLKNSKSEKEVNIPSLDSFMSYTEEYLKTGDFTLDEE ? 0

soluble fraction (log2) >= -0.03 for HMDPLPDEVQEVIDMVDGFKAMDELSEADKADVKAAYDAYNALSAEHKAMVPEHIVTFLNRAYDKLFD ? 1

soluble fraction (log2) >= -0.03 for HMTVSKLKVINYTIRNGDSLWTISRKFNVTVDKVKEWNGLSDRTLLQPGQKLTLYVDPTIQISH ? 0

soluble fraction (log2) >= -0.03 for HMNPDTERIREFVAVSLKNRKVATSGEIQNMIVKQFKNFKLKSHGYSNMKSFLSSIDKIQLNSNGKYSLK ? 0

soluble fraction (log2) >= -0.03 for HMARVSGIDLPKNKRGYIGLTYIYGIGRSTALHILNSAGVDPEKKVHEWNDDETTAIRNIINAEIKVEGAL ? 0

New cases:
soluble fraction (log2) >= -0.03 for HMSLPTSDWKRALSLFDEALSLPPDARDAWLAHTIAREPAVSPLLQKLLGAHRRVETNDILATLPR ? 0

soluble fraction (log2) >= -0.03 for HMKTALDEAKDFLNGALSKGHRPASDVVDEAKEASISEKTLKRAKLAIGIITRKEGFGSEGKWVWELPAR ? 0

----------
# Procedure Summary: soluble fraction after stress (log2 fold change); higher = more stays soluble; pooled small domains, quantitative proteomics
# Measurement Parameters: stress: 50 degC
Value Kind: soluble fraction (log2)

Name the reported soluble fraction (log2) value associated with the sequence HMVDISLSDRELEVLRLLAMGLSNADISRRLYLSEGTIRNYMSGIFSKLNVSDRTQAVVIALREGLVNL -0.48

Name the reported soluble fraction (log2) value associated with the sequence HMKETIIPELLQNELDKNSELNDKFNTFSPYKQREFIEYIITAKQEKTQISRLQKVILMILEGRGLNN -0.204

Name the reported soluble fraction (log2) value associated with the sequence HMQQIEIEEPITVKNLSAVAGLKASEIIAKLMKLGVMSTINQVMERQHAEEIAGEYGFELVVK 0.096

New cases:
Name the reported soluble fraction (log2) value associated with the sequence HMNDMWADITINANGKATLVVHTHEIKYLGLTGHLGKMEINGTAKEPVKDSSGDVVDYYFTFTDLDASMF 0.0763

Name the reported soluble fraction (log2) value associated with the sequence HMLTDMSKIRKVLKLYGKGNSKLFISTYLSLSRNTVKKYISLFEVSGKTIEEILAKSDSELELLFSG -0.919

Name the reported soluble fraction (log2) value associated with the sequence HMKSNIIPLSLKKPQRLDIFLTNYFVDLSRTQIKKMITDGNIKVNDLIAKPSLKLIGDEIIFYTLPK -1.24

----------
# Procedure Summary: soluble fraction after stress (log2 fold change); higher = more stays soluble; pooled small domains, quantitative proteomics
# Measurement Parameters: stress: 50 degC
Recorded soluble fraction (log2) by entry
No unit in the answer, only the number.

These solved cases illustrate the format of a correct answer.
Name the reported soluble fraction (log2) value associated with the sequence HMGGEAEVLQSIDEGREVEVRSVAADGSAEVIYRGARWRARAAVGSLAAGRWTIGRVDGTELVLEK -0.0207

Name the reported soluble fraction (log2) value associated with the sequence HMHPARITATVRVGEGDLVDIEREAELGGPIHSKGVMILSSFLGARYARTVPLSLSASLVFEQSY 0.0114

Name the reported soluble fraction (log2) value associated with the sequence HMTAYEGLPVTLIIDGRVFQQNLQKMNLSVEWLRLELKKFGVTNLKEVLFASLDTEGKLFYQLKT 0.0485

Name the reported soluble fraction (log2) value associated with the sequence HMETKERDEQFLEMIRQNEGIIFKVASFYVDKEHPIGDLYQEVVLNLWKGYPSFRGESKYSTWIYRIALNT -0.0833

Name the reported soluble fraction (log2) value associated with the sequence HMPYSKIALQISHLLKSHGVPLSNKQIYEKLINDFQLSINYSNLTNNILPRMNSDSSINVEKVTRGYWQY -0.634

New cases:
Name the reported soluble fraction (log2) value associated with the sequence HMQSQIAQLYNPLLGYVKKRINSREDAEDLTQDIFLKLSKSNKDGVDNLKSWLYTIAKNTITDYYRKKKII 0.15

Name the reported soluble fraction (log2) value associated with the sequence HMTSDYEPSEKDEKAVIGIAFLRNTDVYDVDIDKAEAIKALKANNDIYQKFVKFFPFVKLPSLYDDFQ -0.00582

Name the reported soluble fraction (log2) value associated with the sequence HMNERLKQLRLSLNLNQEEFGKWLGISKSGVSDIESGRRKVTEQHIIMLSNHNISEKWLRTGEGEMFV -0.0803

----------
# Procedure Summary: soluble fraction after stress (log2 fold change); higher = more stays soluble; pooled small domains, quantitative proteomics
# Measurement Parameters: stress: 50 degC
Would you please tag the item yes when its soluble fraction (log2) is -0.8 or above, and no when it is below?

Some solved cases for reference:
soluble fraction (log2) >= -0.8 for HMRSPIWKSITATLTAEIAGGQYRAGDKLPTEAELSQRFGVNRHTLRRALAEMAGAGLVVARRGAGVFVQG ? no

soluble fraction (log2) >= -0.8 for HMATFTPYLVRITASVLNIRKGPGTTYAVTGQIKDRGVYTIVEQKGNWGRLKSGAGWISLSYTKK ? no

New cases:
soluble fraction (log2) >= -0.8 for HMLLTLPEDIITMVRQGTLSAGHARVLAGLESDEMKMTLARQTITNEWSVRQLENAVALMRKS ? yes

soluble fraction (log2) >= -0.8 for HMLPKAERREQLMAVARSVFAEQGYHTTSMEIIAETAGVSKPLLYQHFPSKLDLYLALLDAGID ? no

soluble fraction (log2) >= -0.8 for HMKHFFIIAGGKIEDAFAIEVLKGFAEKTVIAADSGMEFLRRNEIVPQVIIGDFDSVSKETLEWFQKK ? yes

soluble fraction (log2) >= -0.8 for HMVYNQYILTQSVRLREEPGISGRVIRLLETGTTVELVDTVVVNKDDYDWVWVKLSDGAVGWIIKSAIDI ? yes

soluble fraction (log2) >= -0.8 for HMEESTYQWNNFVRDFYASRVSAQYTNKLKVAAILWHHVKNTPQSKIYHDNLVSKYAEEINYFK ? no

----------
# Procedure Summary: soluble fraction after stress (log2 fold change); higher = more stays soluble; pooled small domains, quantitative proteomics
# Measurement Parameters: stress: 50 degC
Value Kind: soluble fraction (log2)

These solved cases illustrate the format of a correct answer.
Name the reported soluble fraction (log2) value associated with the sequence HMNIEANLEDILRRAMPSAAKLILENSLNINKIIGTGKEGRITKGDVLLYLKDKNLILENILN -0.173

Name the reported soluble fraction (log2) value associated with the sequence HMQGAARGMLFAQAQRWMTKFRIDPQQADRITQAALDPAQTDAILREVRRGYGPSAERALRGIIRRARRA -0.968

Name the reported soluble fraction (log2) value associated with the sequence HMKNIRKQAIEAIDRIKNGNPIVISKNAKLIFKNIAKEANVSPTELHREFRDVMLYVNSLKAP -0.255

Turning to the following sequence.
Name the reported soluble fraction (log2) value associated with the sequence HMETPQIVARGDLITMVFRSGSLVLTAKGKALENGAMGDTIRVVNSDSNKTLAARVSASREVTVSE -0.417

----------
# Procedure Summary: soluble fraction after stress (log2 fold change); higher = more stays soluble; pooled small domains, quantitative proteomics
# Measurement Parameters: stress: 50 degC
Recorded soluble fraction (log2) by entry

These solved cases illustrate the format of a correct answer.
Name the reported soluble fraction (log2) value associated with the sequence HMHAEEIAREAKEALERGEEFHFAGITVRSEEALEFLEEWLRKFF -0.659

Name the reported soluble fraction (log2) value associated with the sequence HMIVPPAIPFRALGIFGPRDRPIVTFEDGPRLINAREGDVLDGRFILRRVGRESVDFAFVGLPPEITRRIP -0.466

Name the reported soluble fraction (log2) value associated with the sequence HMVDPAEASKRAREYLDALPADDLKDVIRQFSATLAEGSVVLGYFQRSGLKSKVVKTALEQFVASTILSK -0.167

New cases:
Name the reported soluble fraction (log2) value associated with the sequence HMGKIINMSKVKQVLRLHTQGVSNRRIALDLGLYKGTVNSYIRKIKDHGYDIAEVLKLDDPVLESKLFA -0.227

Name the reported soluble fraction (log2) value associated with the sequence HMETVVTEVKTTDVVNIRTSDSETADKLSKAAIGDTFPLLEERGNGWSKVAYNGEEAFIKSDYLEPSKTE 0.42

Name the reported soluble fraction (log2) value associated with the sequence HMEMDPKELGRQVLAKRKEKGWSQEQLGKMAEISRNYVSQIERGEADSISIKIINRLAIALGVSPSDLGE 0.0486

Name the reported soluble fraction (log2) value associated with the sequence HMSVNAPMPGKIVNVLVSEGQKVNSGDVLLILEAMKMQNEIAATQAGTVKAINVAAGQSVKVGDALVN 0.108

Name the reported soluble fraction (log2) value associated with the sequence HMLRDMIIQSYRYYTDKERNPRQVWNRMEADAFWEIIRDYEGYNGDGYVHTKIIPEMEALTVIEMDN -1.62
